Assay: PAMPA membrane permeability assay
Type: in vitro ADME
Conditions: PAMPA permeability coefficient, GIT lipid, buffer pH 7.4, 4 hours incubation
Method: The PAMPA assay (pION, Inc., Woburn Mass.) was used to determine the ability of compounds of the invention to cross an artificial lipid membrane by passive diffusion. […] The blank and reference spectrum were read using a spectrophotometer. […] Aliquots (150 μL) from the acceptor plate were added to a UV plate and read as acceptor spectrum. Aliquots (150 μL) of the donor solutions were added to a UV analysis plate and read as donor spectrum. […]
measurementType: PAMPA (10^−6 cm/s)

Answered examples (5):
# compound, experimentalResult
rows = [
    ("Cc1cc(Cl)cc(C)c1NC(=O)C[n+]1ccccc1.[Br-]", "+ (<0.1 10^−6 cm/s)"),
    ("CNC(=O)Cc1ccc[n+](CC(=O)Nc2c(C)cccc2C)c1", "++ (0.1-2.0 10^−6 cm/s)"),
    ("CCc1cccc[n+]1CC(=O)Nc1c(C)cccc1C.[Br-] [Compound 13A]", "+ (<0.1 10^−6 cm/s)"),
    ("Cc1cccc(C)c1NC(=O)C[n+]1cccn1CCC#N", "+ (<0.1 10^−6 cm/s)"),
    ("Cc1cccc(C)c1NC(=O)C[n+]1cccn1C1CCCCC1.[Br-] [Compound 28A]", "+ (<0.1 10^−6 cm/s)"),
]

Entry Cc1cccc(C)c1NC(=O)C[n+]1cccn1C1CCC1 has what PAMPA (10^−6 cm/s)?
+ (<0.1 10^−6 cm/s)

Now the compound CCNc1ccc[n+](CC(=O)Nc2c(C)cccc2C)c1
+ (<0.1 10^−6 cm/s)

Same for CCNC(=O)Cn1ccc[n+]1CC(=O)Nc1c(C)cccc1C.[Br-] [Compound 30A]
++ (0.1-2.0 10^−6 cm/s)

Now the same for COc1cc(F)c[n+](CC(=O)Nc2c(C)cccc2C)c1
+ (<0.1 10^−6 cm/s)

###

Molecular target: NaV1.7 (Homo sapiens)
Construct: expressed in transfected cells; tetracycline-inducible, kept under hygromycin and blasticidin
Experiment: Whole cell patch clamp, internal block of NaV1.7 current (compound in internal solution)
Type: cell-based
Details: % inhibition at 10 μM, compound applied internally, manual patch clamp; read-out: Nav1.7 Intracellular Inhibition
Quick list: inhibition at 10 µM per entry.

Here are 4 molecules together with their reported answers.
# chemicalStructure, targetSystem, measurementType, experimentalResult
records = [
    ("Cc1cccc(C)c1NC(=O)C[n+]1cccc(C(F)(F)F)c1", "NaV1.7 (Homo sapiens)", "inhibition at 10 µM", "70 to 95%"),
    ("CCOC(=O)c1c[n+](CC(=O)Nc2c(C)cccc2C)cn1C", "NaV1.7 (Homo sapiens)", "inhibition at 10 µM", "40 to 70%"),
    ("CCCCCCn1cc[n+](CC(=O)Nc2c(C)cccc2C)c1", "NaV1.7 (Homo sapiens)", "inhibition at 10 µM", "40 to 70%"),
    ("Cc1cccc(C)c1NC(=O)C[n+]1cc(F)c2ccccc2c1", "NaV1.7 (Homo sapiens)", "inhibition at 10 µM", "40 to 70%"),
]

Recorded inhibition at 10 µM for Cc1cccc(C)c1NC(=O)C[n+]1cc(CO)n(C(C)C)c1 , please?
70 to 95%

###

Biological target: NaV1.7 (Homo sapiens, UniProt Q15858)
Construct: expressed in transfected cells; tetracycline-inducible, kept under hygromycin and blasticidin
Sequence (Q15858 whole entry): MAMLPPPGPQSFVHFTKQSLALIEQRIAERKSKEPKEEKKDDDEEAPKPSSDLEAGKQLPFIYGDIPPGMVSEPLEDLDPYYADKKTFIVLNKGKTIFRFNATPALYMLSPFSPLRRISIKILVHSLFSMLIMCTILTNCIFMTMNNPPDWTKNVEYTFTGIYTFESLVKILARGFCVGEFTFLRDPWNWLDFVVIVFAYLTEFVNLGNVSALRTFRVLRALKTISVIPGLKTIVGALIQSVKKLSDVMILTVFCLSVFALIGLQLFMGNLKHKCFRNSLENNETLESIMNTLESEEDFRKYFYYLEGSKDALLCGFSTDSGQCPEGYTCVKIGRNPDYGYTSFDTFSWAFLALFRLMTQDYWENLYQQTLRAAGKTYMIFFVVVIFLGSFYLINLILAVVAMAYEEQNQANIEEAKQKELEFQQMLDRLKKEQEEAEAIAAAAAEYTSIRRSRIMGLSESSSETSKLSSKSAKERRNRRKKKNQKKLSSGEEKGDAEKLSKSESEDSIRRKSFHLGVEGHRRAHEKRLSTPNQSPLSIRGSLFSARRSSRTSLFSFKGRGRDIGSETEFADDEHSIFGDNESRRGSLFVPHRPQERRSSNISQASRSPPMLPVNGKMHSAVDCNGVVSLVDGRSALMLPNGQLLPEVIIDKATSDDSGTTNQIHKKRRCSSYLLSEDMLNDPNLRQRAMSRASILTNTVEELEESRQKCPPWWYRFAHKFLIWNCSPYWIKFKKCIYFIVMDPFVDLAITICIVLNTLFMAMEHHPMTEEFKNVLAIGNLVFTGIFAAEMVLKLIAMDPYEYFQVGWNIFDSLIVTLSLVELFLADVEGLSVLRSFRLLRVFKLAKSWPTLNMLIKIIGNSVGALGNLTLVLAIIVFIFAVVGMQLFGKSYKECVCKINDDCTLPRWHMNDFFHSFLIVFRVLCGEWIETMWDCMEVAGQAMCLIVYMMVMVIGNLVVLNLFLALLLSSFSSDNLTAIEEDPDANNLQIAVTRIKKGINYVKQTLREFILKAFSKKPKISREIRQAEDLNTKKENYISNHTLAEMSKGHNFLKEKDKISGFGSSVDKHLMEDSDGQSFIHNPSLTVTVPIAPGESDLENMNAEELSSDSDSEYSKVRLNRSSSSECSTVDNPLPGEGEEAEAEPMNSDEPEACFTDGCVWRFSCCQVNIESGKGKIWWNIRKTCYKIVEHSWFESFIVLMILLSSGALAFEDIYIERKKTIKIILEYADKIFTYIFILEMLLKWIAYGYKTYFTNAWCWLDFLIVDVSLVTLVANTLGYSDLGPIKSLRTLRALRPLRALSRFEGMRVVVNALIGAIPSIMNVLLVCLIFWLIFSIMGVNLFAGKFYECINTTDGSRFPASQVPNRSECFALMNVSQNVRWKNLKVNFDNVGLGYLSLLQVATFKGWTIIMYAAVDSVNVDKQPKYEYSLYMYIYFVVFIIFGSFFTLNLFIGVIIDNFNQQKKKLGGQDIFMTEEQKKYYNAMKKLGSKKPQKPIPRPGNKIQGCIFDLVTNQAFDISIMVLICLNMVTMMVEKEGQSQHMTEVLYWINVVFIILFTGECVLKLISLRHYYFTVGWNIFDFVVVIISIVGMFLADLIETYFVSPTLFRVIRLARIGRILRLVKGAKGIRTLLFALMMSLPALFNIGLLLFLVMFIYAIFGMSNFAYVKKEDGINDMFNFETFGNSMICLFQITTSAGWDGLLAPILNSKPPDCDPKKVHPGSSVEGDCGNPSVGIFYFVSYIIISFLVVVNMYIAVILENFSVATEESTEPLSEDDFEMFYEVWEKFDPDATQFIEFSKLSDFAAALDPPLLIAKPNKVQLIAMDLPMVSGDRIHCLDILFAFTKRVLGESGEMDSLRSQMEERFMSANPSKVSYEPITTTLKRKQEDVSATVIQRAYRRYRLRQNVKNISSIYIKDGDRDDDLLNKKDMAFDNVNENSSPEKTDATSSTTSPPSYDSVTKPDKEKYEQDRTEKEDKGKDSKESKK
Assay: Automated patch clamp (Qube 384), external block of NaV1.7 in HEK293 cells
Assay type: cell-based
Conditions: compound in external solution, read-out: Nav1.7 Extracellular Inhibition (IC50)
measurementType: IC50

// solved cases for IC50 follow
# compound, measurementType, experimentalResult
rows = [
    ("CCCn1ccc(C)[n+]1CC(=O)Nc1c(C)cccc1C [Compound 101]", "IC50", "> 100 µM"),
    ("Cc1cccc(C)c1NC(=O)C[n+]1cccc(N2CCCC2)c1 [Compound 51]", "IC50", "> 100 µM"),
    ("CNC(=O)Cc1ccc[n+](CC(=O)Nc2c(C)cccc2C)c1 [Compound 33]", "IC50", "> 100 µM"),
    ("Cc1cccc(C)c1NC(=O)C[n+]1cccn1C1CCCCC1 [Compound 28]", "IC50", "30 to 100 µM"),
]

Tell me the measured IC50 of CCOC(=O)CCn1ccc[n+]1CC(=O)Nc1c(C)cccc1C [Compound 80] , please.
> 100 µM

Input Cc1cccc(C)c1NC(=O)C[n+]1cccn1CCC#N [Compound 70]
> 100 µM

Try the compound Cc1cccc(C)c1NC(=O)C[n+]1cccc(N)c1 [Compound 49]
> 100 µM

Would you kindly repeat that for Cc1cccc(C)c1NC(=O)C[n+]1cccn1CC(C)C [Compound 27] ?
> 100 µM

Next compound up: Cc1cccc(C)c1NC(=O)C[n+]1cccc(C(F)(F)F)c1 [Compound 66]
30 to 100 µM

Would you mind doing Cc1cccc(C)c1NC(=O)C[n+]1cccn1C1CCC1 [Compound 72] as well?
> 100 µM

Lookup Cc1cccc(C)c1NC(=O)C[n+]1cccn1CC#N [Compound 69]
> 100 µM

For Cc1cccc(C)c1NC(=O)C[n+]1cccn1C1CCCC1 [Compound 71] then?
> 100 µM

Another compound to check: CCOC(=O)c1cc(C)[n+](CC(=O)Nc2c(C)cccc2C)n1C [Compound 84]
> 100 µM

Again, but for COc1cc(C#N)c[n+](CC(=O)Nc2c(C)cccc2C)c1 [Compound 97]
< 10 µM

Another compound: Cc1cccc(C)c1NC(=O)C[n+]1cccc(S(=O)(=O)N(C)C)c1 [Compound 47]
10 to 30 µM

And for Cc1cccc(C)c1NC(=O)C[n+]1cccc(-c2ccccc2)c1 [Compound 12] ?
10 to 30 µM

Next: Cc1cccc(C)c1NC(=O)C[n+]1cc(-c2ccccc2)n(C)c1 [Compound 24]
> 100 µM

Then Cc1cccc(C)c1NC(=O)C[n+]1cc(F)ccc1-c1ccccc1 [Compound 79] ?
30 to 100 µM

Again, but for COc1cc(OC)c[n+](CC(=O)Nc2c(C)cccc2C)c1 [Compound 98]
> 100 µM
